# Tested on: CEM cells HIV-1 protection, formazan growth assay
# assay_summary: NCI AIDS Antiviral Assay
# test_context: measured here: growth of uninfected CEM cells
pIC50: −log10 of the molar value.
measured_quantity: pIC50

C=C1CC[N+]2(CC(C)C)CCCC12 (centres undefined) : < 3.30
Cc1ccc(-c2n[nH]c(=O)[nH]2)cc1[N+](=O)[O-] : < 3.70
O=C(/C=C/c1ccc(Cl)c(Cl)c1)c1cccc2ccccc12 : < 5.50
CCCCCCCCCCCCCCCCCC(=O)NCCCNCCCNC(=O)CCCCCCCCCCCCCCCCC : < 4.90

* * *

# Test system: CEM cells HIV-1 protection, formazan growth assay
# assay_summary: NCI AIDS Antiviral Assay
# test_context: measured here: growth of uninfected CEM cells
measured_quantity: IC50

CN(C)/C=N/n1c2ccccc2c2ccccc21 : 110 µM
CC(C)(C)OC(=O)NC(Cc1ccccc1)C(=O)N[C@H]1c2ccsc2/C(=N/O)[C@H]1O (some centres not stated) : 91.2 µM
CC(=O)C(CN1C(=O)c2ccccc2C1=O)C(C)=O : > 38.9 µM
O=C(c1ccccc1)c1nc2ccc(Cl)cc2c2c1CCCO2 : > 16.2 µM
CC(C)OP(=O)(Cc1cc(C(C)(C)C)c(O)c(C(C)(C)C)c1)OC(C)C : > 67.6 µM
CCSc1nnc(CSc2nc(-c3ccccc3)c(-c3ccccc3)[nH]2)n1-c1ccccc1 : > 21.4 µM
CC(C)(C)CC(C)(C)c1cc2c(O)c(c1)Cc1cc(C(C)(C)CC(C)(C)C)cc(c1O)Cc1cc(C(C)(C)CC(C)(C)C)cc(c1O)Cc1cc(C(C)(C)CC(C)(C)C)cc(c1O)Cc1cc(C(C)(C)CC(C)(C)C)cc(c1O)Cc1cc(C(C)(C)CC(C)(C)C)cc(c1O)Cc1cc(C(C)(C)CC(C)(C)C)cc(c1O)Cc1cc(C(C)(C)CC(C)(C)C)cc(c1O)C2 : > 2.04 µM
